Hi there, I'd appreciate the recorded composite z-score for every entry that follows.
molecular target: Fibroblast growth factor 2 (Homo sapiens) (UniProt P09038); assay: basic fibroblast growth factor binding to printed compounds – biochemical, small-molecule microarray, 635/667 nm fluorescence, primary screen (AID 1133); details: FGF2, fluorescence 635/667, higher = more signal
Sequence (P09038 whole entry, looked up): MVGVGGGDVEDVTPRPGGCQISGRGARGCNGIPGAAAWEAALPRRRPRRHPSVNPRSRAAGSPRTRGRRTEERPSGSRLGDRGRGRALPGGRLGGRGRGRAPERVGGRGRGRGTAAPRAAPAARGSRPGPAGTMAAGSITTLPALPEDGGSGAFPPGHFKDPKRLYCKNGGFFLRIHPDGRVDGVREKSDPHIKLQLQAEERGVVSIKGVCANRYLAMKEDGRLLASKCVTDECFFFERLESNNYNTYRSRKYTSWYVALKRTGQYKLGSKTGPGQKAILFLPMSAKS
No unit in the answer, please; the number alone is enough.

## Input Reported composite z-score for NC(=O)N1C(=O)C2C(C1=O)C1C=C(CCCO)C2C(C2CC2)N1Cc1cc2c(cc1Br)OCO2 (configuration not stated) : what is it?
## Output -0.407

## Input Reported composite z-score for C=C(CCCC)/C(=C/C[C@@H](OC(C)=O)c1ccccc1OCCO)c1cc(C(=O)OC)ccc1OC : what is it?
## Output 0.16

## Input Reported composite z-score for CC(CO)N1C(=O)[C@@H]2C3C(=O)OCCC/C=C\[C@H]3OC23C=CCN(CCN2CCOCC2)C(=O)[C@@H]13 (some centres not stated) : what is it?
## Output 0.186

## Input Reported composite z-score for C=CC[C@]1(C(N)=O)N=C(c2ccc(OCCCO)cc2)O[C@H]1c1ccccc1 : what is it?
## Output 0.17

## Input Reported composite z-score for COc1ccc(NC(=O)O[C@H]2[C@H](OC(=O)c3cc4ccccc4[nH]3)[C@@H](OC(=O)c3cc4ccccc4[nH]3)[C@@H](OC)O[C@@H]2CO)cc1 : what is it?
## Output 1.38

## Input Reported composite z-score for Cc1ccc(S[C@]2(C(=O)NCC(C)C)CC(=O)N(Cc3cc(C(F)(F)F)cc(C(F)(F)F)c3)[C@@H]2c2ccc(CO)cc2)cc1 : what is it?
## Output -0.205

## Input Reported composite z-score for C=CCC(OC(C)=O)[C@@H]1[C@@H](N(Cc2ccc(-c3ccccc3)cc2)C(=O)Cc2ccc(F)cc2)c2cc(OCCCO)ccc2N1C(=O)c1ccc2ccccc2c1 (some centres not stated) : what is it?
## Output 0.288

###

test: binders from COS7 lysate, DM2A8 probe, primary screen, torsin A project, cell lysate, small-molecule microarray, fluorescence 635/667 (AID 1065); conditions: higher = more signal, COS7 lysate expressing mutant human TOR1A
measured-attribute: composite z-score
No unit in the answer, please; the number alone is enough.

## Input Reported composite z-score for CCCCC(=C=CC[C@@H](O)c1cccc(OCCO)c1)C[C@@H](O)c1ccccn1 : what is it?
## Output 0.775

## Input Reported composite z-score for CC(=O)n1cc(C(O)C2C=CC3C(=O)NC(=O)C3N2Nc2ccccn2)c2ccccc21 (stereo unspecified) : what is it?
## Output 0.0908

## Input Reported composite z-score for O=C1NC(=O)C2C1C=CC(C(O)c1ccc(I)cc1)N2Nc1ccc(Cl)cc1Cl (stereo unspecified) : what is it?
## Output -0.396

## Input Reported composite z-score for COc1ccc(C(=O)Nc2cccc(CN3C(=O)[C@]4(O[C@H](CCn5cc(CCO)nn5)[C@@H]([Si](C)(C)c5ccc(OC)cc5)[C@@H]4C)c4ccccc43)c2)cc1 : what is it?
## Output -0.161

## Input Reported composite z-score for O=C1NC(=O)C2C1C=CC(C(O)C1CC=CCC1)N2Nc1ccccn1 (stereo unspecified) : what is it?
## Output 0.922

## Input Reported composite z-score for COc1cc2c(cc1O)C(c1cccs1)N(Cc1ccc([N+](=O)[O-])o1)CC2 (stereo unspecified) : what is it?
## Output 1.85

## Input Reported composite z-score for COCCCNC(=O)[C@@H]1c2ccccc2C(=O)N(Cc2ccccc2OC)[C@H]1c1ccc(CO)cc1 : what is it?
## Output 0.64

## Input Reported composite z-score for O=C(O)[C@@]1(CCS(=O)(=O)c2ccccc2)N=C(c2ccc(OCCCO)cc2)O[C@H]1c1ccccc1 : what is it?
## Output -0.0272

## Input Reported composite z-score for C=CC[C@]12N=C(c3ccc(OCCCO)cc3)O[C@H]1c1ccccc1N(CCS(=O)(=O)c1ccccc1)C2=O : what is it?
## Output -0.312

## Input Reported composite z-score for CCCC[C@@H]1C[C@H]1[C@@H](NC(=O)c1cccnc1)c1ccc(Cl)cc1 : what is it?
## Output -1.02

## Input Reported composite z-score for CC(=CC1CCCCC1)[C@@H](NC(=O)c1cccnc1)c1ccc(-c2ccccc2)cc1 : what is it?
## Output -0.545

## Input Reported composite z-score for COc1ccc(CCNC(=O)[C@@]2(C)c3ccccc3C(=O)N(c3ccc(C)cn3)[C@H]2c2ccc(CO)cc2)cc1 : what is it?
## Output -0.997

## Input Reported composite z-score for CS(=O)(=O)CCOC(=O)C1=CC(CCCO)=CC(c2ccc(CN3CCCC3)cc2)N(Cc2cccc(OC(F)(F)F)c2)C=C1C(=O)OCCS(C)(=O)=O (stereo unspecified) : what is it?
## Output 0.851

## Input Reported composite z-score for C=CCNC(=O)[C@@H]1[C@H]2C(=O)O[C@H](c3ccccc3)[C@H](c3ccccc3)N2[C@H](c2ccc(OCCO)cc2)[C@@]12C(=O)N(C(=O)OCCOC)c1ccc(C#CCC(C(=O)OC)C(=O)OC)cc12 : what is it?
## Output 1.25

## Input Reported composite z-score for COc1ccc([C@H]2C[C@H]3C(I)=C[C@@H]2C(=O)[C@]32CO2)cc1 : what is it?
## Output 0.241

## Input Reported composite z-score for O=C1OCCC=C[C@H]2OC34C=CCN(CCN5CCOCC5)C(=O)[C@H]3N(CCCCCO)C(=O)[C@@H]4C12 (stereo partly specified) : what is it?
## Output 1.84
